subject.of.test: human orexin-2 receptor (hOX2R) (Homo sapiens (Human))
Sequence (O43614 whole entry): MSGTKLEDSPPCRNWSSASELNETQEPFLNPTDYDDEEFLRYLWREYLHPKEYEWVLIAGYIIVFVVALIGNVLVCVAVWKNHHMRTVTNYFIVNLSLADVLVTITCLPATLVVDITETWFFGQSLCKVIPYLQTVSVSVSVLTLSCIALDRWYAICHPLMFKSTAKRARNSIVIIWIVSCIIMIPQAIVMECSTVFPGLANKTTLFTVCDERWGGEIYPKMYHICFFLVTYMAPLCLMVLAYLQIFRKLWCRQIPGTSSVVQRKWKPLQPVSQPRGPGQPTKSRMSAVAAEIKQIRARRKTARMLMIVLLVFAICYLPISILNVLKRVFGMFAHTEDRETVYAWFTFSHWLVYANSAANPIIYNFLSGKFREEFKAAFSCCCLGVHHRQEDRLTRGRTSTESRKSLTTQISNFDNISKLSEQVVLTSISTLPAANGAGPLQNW
test.description: FLIPR Ca2+ Flux Assay, hOX2R
setup.conditions: CHO cells expressing hOX2R; agonist 70 pM Ala-6,12 orexin-A
metric: IC50
Be sure to follow the number with its unit.

# IC50 lookup, item C[C@@H]1CC[C@@H](Oc2cccc(C(C)(O)C3CCCC3)c2)CN1C(=O)c1ccccc1-n1nccn1 (stereo partly shown) [Example 16] 86 nM

# get_value(readout='IC50', item= C[C@@H]1CC[C@@H](Oc2cccc(C(C)(C)O)c2)CN1C(=O)c1ccsc1-n1nccn1 [Example 37] ) 45 nM

# input compound: CCC(C)(O)c1cccc(O[C@@H]2CC[C@@H](C)N(C(=O)c3ccccc3-n3nccn3)C2)c1 (stereo partly shown) [Example 18] ; wanted: its IC50 24 nM

Tell me the measured IC50 of C[C@@H]1CC[C@@H](Oc2ccc3c(c2)C(C)(O)CC3)CN1C(=O)c1ccccc1-n1nccn1 (stereo partly shown) [Example 33] , please. 23 nM

Request the reported IC50 associated with C[C@@H]1CC[C@@H](Oc2cc(C(C)(C)O)ccc2F)CN1C(=O)c1ccccc1-n1nccn1 [Example 20] 354 nM

Entry C[C@@H]1CC[C@@H](Oc2cccc3c2CCC[C@]3(C)O)CN1C(=O)c1ccccc1-n1nccn1 [Example 30] has what IC50? 20 nM

If you can, please state the reported IC50 value of C[C@@H]1CC[C@@H](Oc2cc(C3(O)CCC3)ccn2)CN1C(=O)c1ccccc1-n1nccn1 [Example 8] . 41 nM
